Source: PubChem BioAssay (NCI)

Test system: SNB-75 CNS
test.method.notes: NCI-60 one-dose screen, 48 h
experimental.context: 10 µM unless noted
Compounds without any hit were thinned out: in the full panel of roughly 83,000, 20% have a hit. The source made the active and inactive calls. How the source made its calls: active means growth percent below 10; inactive means the rest.
Classes used: active, inactive

[
  {
    "compound": "CN1C(=O)N(C)C2(c3ccccc3)OC(=S)NC12c1ccccc1 (centres undefined)",
    "group": "inactive"
  },
  {
    "compound": "S=C1CCCC(=S)N1",
    "group": "inactive"
  },
  {
    "compound": "O=C(Nc1ccc(Br)cc1F)c1cc(F)ccc1O",
    "group": "active"
  },
  {
    "compound": "Cc1ccc(Cc2cnc(NC(=O)CN3C(=O)/C(=C\\c4ccccc4)SC3=S)s2)cc1",
    "group": "inactive"
  },
  {
    "compound": "Cc1cc(Br)c(N)c(Br)c1",
    "group": "inactive"
  },
  {
    "compound": "O=NN(Cc1cccnc1)C(=O)NC1CCCCC1",
    "group": "inactive"
  },
  {
    "compound": "NS(=O)(=O)c1ccc(CCN=C=S)cc1",
    "group": "inactive"
  },
  {
    "compound": "COc1cc(C(C)n2cc(-c3ccccc3)nn2)ccc1OC1CCCCC1 (centres undefined)",
    "group": "inactive"
  },
  {
    "compound": "COc1c2ccoc2c(/C=C/C=O)c2oc(-c3ccccc3)cc(=O)c12",
    "group": "inactive"
  }
]

====

System: DU-145 prostate
test.method.notes: NCI-60 one-dose screen, 48 h (100 = growth as untreated, 0 = no growth, -100 = all killed)
experimental.context: 10 µM unless noted
This is part of a sample that, as a whole, favours compounds with a hit. Of some 83,000 tested, about 20% had one in any assay.
growth below 90% gives F; growth at or above it gives T.

[
  {
    "compound": "CNCCNc1nc2ccccc2c2c(=O)c3cc(OC)ccc3sc12",
    "group": "F"
  },
  {
    "compound": "O=C(O)CCC(=O)c1ccc(C2CCCCCC2)cc1",
    "group": "T"
  },
  {
    "compound": "COc1ccc(C(=O)Nc2ccc3nc(N4CCCCC4)cc(C)c3c2)cc1OC",
    "group": "F"
  },
  {
    "compound": "O=c1c2cccc(F)c2sc2c(N3CCNCC3)nc3ccccc3c12",
    "group": "F"
  },
  {
    "compound": "Fc1ccc(Oc2ccc(Nc3ncnc4onc(-c5ccccc5)c34)cc2)cc1",
    "group": "T"
  },
  {
    "compound": "NCCOc1ncccc1/C=C1\\c2ccccc2-c2ccc(F)cc21",
    "group": "F"
  },
  {
    "compound": "O=C(CSc1nc2ccccc2c(=O)n1-c1ccccc1)Nc1ccc(C(=O)/C=C/c2ccc(Cl)cc2)cc1",
    "group": "T"
  },
  {
    "compound": "CNCCNc1nc2ccccc2c2c(=O)c3cccc(OC)c3sc12",
    "group": "F"
  },
  {
    "compound": "CCOC(=O)C1(Cc2ccccc2)CCN(Cc2cccc(OC)c2O)CC1",
    "group": "F"
  },
  {
    "compound": "COc1cccc(C(=O)NC(c2ccc(C)cc2)c2cc(Cl)c3cccnc3c2O)c1 (stereo unspecified)",
    "group": "F"
  },
  {
    "compound": "COc1ccc(OC)c(N(CCN2C(=O)c3ccccc3C2=O)C(=O)CCl)c1",
    "group": "F"
  }
]

====

Tested on: 786-0 renal
test.method.notes: NCI-60 one-dose screen, 48 h (100 = growth as untreated, 0 = no growth, -100 = all killed)
experimental.context: 10 µM unless noted
Compounds without any hit were thinned out: in the full panel of roughly 83,000, 20% have a hit.

[
  {
    "molecule": "O=C(NC1CCCCC1)C(c1cccs1)N(CCc1ccccc1)C(=O)c1ccco1 (centres undefined)",
    "growth [%]": 91.1
  },
  {
    "molecule": "CCCCC1COc2cccc3c2N1C=C/C3=C\\C(=O)N(C)c1ccccc1 (centres undefined)",
    "growth [%]": 79.3
  },
  {
    "molecule": "COc1cc(C(C)n2cc(-c3ccccc3)nn2)ccc1OC1CCCC1 (centres undefined)",
    "growth [%]": 72.7
  },
  {
    "molecule": "CCCCCCn1c(=N)n(CC(O)COc2cccc(C)c2)c2ccccc21 (centres undefined)",
    "growth [%]": -86.5
  },
  {
    "molecule": "COC(=O)/C(CCC=C(C)C)=C1\\[C@@H](OC(C)=O)C[C@@]2(C)[C@H]1C[C@@H](O)[C@H]1[C@@]3(C)CC[C@H](NCCCNCCCCNCCCN)[C@@H](C)[C@@H]3CC[C@@]12C",
    "growth [%]": 44.8
  },
  {
    "molecule": "N[C@@H](CC/[N+]([O-])=N/O)C(=O)O",
    "growth [%]": 104
  },
  {
    "molecule": "COc1ccc2oc(=O)cc(Cn3cc(Cn4cnc5c4c(=O)n(C)c(=O)n5C)nn3)c2c1",
    "growth [%]": 98
  },
  {
    "molecule": "Nc1nc(-c2cnccn2)nn1-c1nc2ccccc2s1",
    "growth [%]": 102
  },
  {
    "molecule": "COc1cc(C(=O)O/N=C(\\N)Cc2cccc3ccccc23)cc(OC)c1OC",
    "growth [%]": 45.9
  }
]

====

Test system: MOLT-4 leukemia
test.method.notes: NCI-60 one-dose screen, 48 h
experimental.context: 10 µM unless noted
Description: Growth inhibition of the MOLT-4 human tumor cell line is measured as a screen for anti-cancer activity. Cells are grown in 96 well plates and exposed to the test compound for 48 hours. Compounds are tested at a single concentration, which is 10^-5 M for most compounds. The reported endpoint is percent growth (GI% or GIPRCNT), where numbers from 0 - 100% represent growth inhibition, and numbers from -100% - 0 represent cell death. For example, a value of 40 represents 60% growth inhibition. […]
This is part of a sample that, as a whole, favours compounds with a hit. Of some 83,000 tested, about 20% had one in any assay. Active and inactive are the calls of the source. Rule for the calls: active = growth percent below 10; inactive = the rest.
Possible outcomes: True = active, False = inactive

[
  {
    "compound": "CCOC(=O)c1c2c(c(C)n1Cc1ccc(OC)cc1)-c1oncc1CC2",
    "group": "False"
  },
  {
    "compound": "O=Nc1c(O)ccc2ccccc12.O=Nc1c(O)ccc2ccccc12.O=Nc1c([O-])ccc2ccccc12.[Fe+3]",
    "group": "False"
  },
  {
    "compound": "O=C1Nc2ccccc2/C1=C/c1ccc[nH]1",
    "group": "False"
  },
  {
    "compound": "CN1CCN(Cc2ccc(C(=O)Nc3cncc(C#Cc4cnc5cccnn45)c3)cc2C(F)(F)F)CC1",
    "group": "False"
  },
  {
    "compound": "CCCc1c(C)c2sc(=O)[nH]c2[nH]c1=O",
    "group": "False"
  },
  {
    "compound": "O=C1NC(=O)C(=Cc2cn(Cc3cn(Cc4ccc(Cl)cc4Cl)nn3)c3ccccc23)C(=O)N1",
    "group": "False"
  },
  {
    "compound": "COc1ccc(-n2c(C(O)c3ccccc3)n[nH]c2=S)cc1 (stereo not given)",
    "group": "False"
  },
  {
    "compound": "Nc1n[nH]c2ccc([C@@H]3Nc4ccc5[nH]ncc5c4[C@H]4[C@H]5CCC(C5)[C@H]43)cc12",
    "group": "False"
  },
  {
    "compound": "S=C1NC2(c3ccccc3)CCC(=S)N2c2ccccc21 (stereo not given)",
    "group": "False"
  },
  {
    "compound": "CC(C)C[C@H](C(=O)N[C@H](C(N)=O)C(C)C)N1CC=CCN(OCc2ccccc2)S1(=O)=O",
    "group": "False"
  },
  {
    "compound": "FC(F)(F)c1cccc(Nc2nc3ccccc3nc2Nc2cccc(C(F)(F)F)c2)c1",
    "group": "True"
  },
  {
    "compound": "C1=CC2(C=C1)OC21CCC2(C=CC3(C2)OC3C2CCCCC2)CC1 (stereo not given)",
    "group": "False"
  },
  {
    "compound": "COc1ccc(Cn2c(Br)c3c(c2Br)-c2nc(N)sc2CC3)cc1",
    "group": "True"
  },
  {
    "compound": "CN(CCc1ccccc1)C(=S)N(C(=O)c1ccc([N+](=O)[O-])cc1)c1ccc(Cl)cc1",
    "group": "False"
  },
  {
    "compound": "N#C/C(=C\\c1c(-c2ccccc2)[nH]c2ccccc12)C(=O)c1ccccc1",
    "group": "False"
  },
  {
    "compound": "CCN1CCN(C(=S)SCC(=O)Nc2nc3ccc(C)cc3s2)CC1",
    "group": "False"
  },
  {
    "compound": "CCCCOCc1cc(CN2CCN(C)CC2)c(O)c2ncccc12",
    "group": "False"
  },
  {
    "compound": "CC(=O)c1ccc2oc(=O)n(Cc3ccc(C#N)cc3)c(=O)c2c1",
    "group": "False"
  },
  {
    "compound": "COc1ccc(S(=O)(=O)N(Cc2ccc3c(n2)C=CC(C)(C)O3)C2CCC2)cc1OC",
    "group": "True"
  },
  {
    "compound": "COc1ccc(/C=c2\\sc3n(c2=O)NC2C(N=3)N(C)C(=O)N2C)cc1 (stereo not given)",
    "group": "False"
  },
  {
    "compound": "O=C1c2cc(Br)ccc2Oc2cc([N+](=O)[O-])ccc2N1c1ccc(I)cc1F",
    "group": "False"
  },
  {
    "compound": "O=S(=O)(Nc1ncccn1)c1ccc(NC2Nc3nc4ccccc4nc3S2)cc1 (stereo not given)",
    "group": "False"
  },
  {
    "compound": "O=c1oc2ccc(Cl)cc2c(=O)n1-c1cc(C(F)(F)F)cc(C(F)(F)F)c1",
    "group": "True"
  },
  {
    "compound": "O=C(/C=C/c1ccccn1)c1ccc(OCc2nnc(-c3ccc(Cl)cc3)o2)cc1",
    "group": "False"
  },
  {
    "compound": "COc1cc(C(=O)NN=C2c3ccccc3-c3ccccc32)cc(OC)c1OC",
    "group": "False"
  },
  {
    "compound": "Nc1ccn(C2O[C@H](CO)[C@@H](O)[C@H]2O)c(=O)n1 (stereo not given in full)",
    "group": "False"
  },
  {
    "compound": "CN1C(=O)N(C)C2Nn3c(s/c(=C\\c4ccc(Cl)cc4Cl)c3=O)=NC21 (stereo not given)",
    "group": "False"
  },
  {
    "compound": "CC(=O)c1ccc(NC(=O)Nc2ccc(S(=O)(=O)Nc3ccc(Cl)nn3)cc2)cc1",
    "group": "False"
  },
  {
    "compound": "CCOc1cccc(/C=N/NC(=O)C(=O)Nc2cccc(C(F)(F)F)c2)c1O",
    "group": "False"
  },
  {
    "compound": "O=C(Nc1ccc(N2CCNCC2)cc1)c1[nH]ncc1Nc1cc(Oc2ccccc2)ncn1",
    "group": "True"
  },
  {
    "compound": "CC1(C)CC2(C)OC2C2(C1)N=NC(=Nc1ccccc1)O2 (stereo not given)",
    "group": "False"
  },
  {
    "compound": "CC[C@]1(O)C[C@@H]2CN(CCc3c([nH]c4ccccc34)[C@@](C(=O)OC)(c3cc4c(cc3OC)N(C)[C@H]3[C@@](O)(C(=O)OC)[C@H](OC(C)=O)[C@]5(CC)C=CCN6CC[C@]43[C@@H]65)C2)C1",
    "group": "False"
  },
  {
    "compound": "O=C(Nc1ccc(C23CC4CC(CC(c5ccccc5)(C4)C2)C3)cc1)c1cccs1",
    "group": "False"
  },
  {
    "compound": "CCOC(=O)C1=C(C)N=c2s/c(=C\\c3ccccc3O)c(=O)n2C1c1ccc(OC)c2ccccc12 (stereo not given)",
    "group": "True"
  },
  {
    "compound": "COc1cccc(C(=O)NC(c2ccc(C)cc2)c2cc(Cl)c3cccnc3c2O)c1 (stereo not given)",
    "group": "False"
  },
  {
    "compound": "COc1ccc(/C=C/C(=O)c2c(C)nc3ccccc3c2/C=C/c2ccccc2)cc1O",
    "group": "False"
  },
  {
    "compound": "CCOC(=O)c1ccc2[nH]c(-c3ccccc3)cc(=O)c2c1",
    "group": "False"
  },
  {
    "compound": "COc1ccc2sc(N(Cc3cccnc3)C(=O)c3ccc(C#N)cc3)nc2c1",
    "group": "False"
  },
  {
    "compound": "CC(=O)n1cc(-c2c[nH]c3ccccc23)c(-c2ccc(Cl)cc2)n1",
    "group": "False"
  },
  {
    "compound": "COc1ccc(-c2nocc2-c2cccs2)cc1",
    "group": "False"
  }
]
